Measured values drawn from the RNAGym collection of RNA variant scans (doi:10.7554/elife.80360) for this set.

Listing of recorded self-cleavage by entry.
B1: Hairpin Ribozyme (parent)
chain: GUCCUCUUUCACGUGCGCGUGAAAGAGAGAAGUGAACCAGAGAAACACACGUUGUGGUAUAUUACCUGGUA

variants of: B1; assay: self-cleavage, relative activity (ratio to wild type); higher = more cleavage; co-transcriptional
Form field (numeric): enter value without unit.

Example entries and their recorded answers appear below.
GUCCUCUUUCACGAGCGCGUGAAAGAGAGAAGUGAACCAGAGAAACACACGUUGUGGCAUAUUACCUGGUA [U14A U58C] ... 0.78
GCCCUCUUUCACGUGCGCGUGAAAGAGAGAAGUGAACCAGAGAAACACACGUUGUGAUAUAUUACCUGGUA [U2C G57A] ... 0.175
GUCCUCUUUCACGUGCGCGUGAAAGAGAGAAGUGACCCAGAGAAACACACGUUGUGGUAUACUACCUGGUA [A36C U62C] ... 0.192

Request: Can you share its self-cleavage? I mean this variant: GUCCUCUUUCACGUGCGCGAGAAUGAGAGAAGUGAACCAGAGAAACACACGUUGUGGUAUAUUACCUGGUA [U20A A24U]
Result: 0.732

Request: What does the record list as self-cleavage for GUCCUCUUUCACGUGCGCGUGAAGGAGAGAAGUGAACCAGAGAAACACACGUUGGGGUAUAUUACCUGGUA [A24G U55G] ?
Result: 0.193

Request: Value lookup for self-cleavage; key = GUCCUCUUUCACGUGCGCGUGCAAGAGAGAAGUGAACCAGAGAAAUACACGUUGUGGUAUAUUACCUGGUA [A22C C46U]
Result: 0.141
